- System: MS2 coat protein
- assay-summary: apparent KD of MS2 coat protein; designed switch direction (-1 OFF switch, 1 ON switch): -1; higher = weaker reporter binding
- condition-details: Eterna round: R95; input ligand: FMN 200 uM
readout-type: apparent KD of MS2 coat protein (µM)
The response must be a number in µM with no trailing unit.

Worked cases, apparent KD of MS2 coat protein given:
chain | units | apparent KD of MS2 coat protein
UUUAAUUUUUUUUUUUUACAAGCUUUUUGCUCGUCUUAUACAUGAGGAUCACCCAUGUGGGUGGAGGGUAAAUUAUC [JMF 89] (puzzle: Sensor v3, turn-off variant 2) | µM | 0.0359
CAUACACAUGAGGAUCACCCAUGUGAGGAUAUGCGUACGUUGUCCGUAGGCGACGUGCGCAGAAGGCGCAUGAG [JL-ex1-3.13 Eli mod] (puzzle: Exclusion 1) | µM | 0.0276
UUUUACUCAGGAUAUAUGAUGUGAAACAUGAGGAUCACCCAUGUAAUAUUAUGGAUGUAAAUAGAAGGGAGAUUUU [Mat - Exclusion 5 - JL mod - D17] (puzzle: Exclusion 5) | µM | 0.0588
AGUACUAACACGGAAGUGUUAGUACAAUAAGCUUGUGUUACAUGAGGAUCACCCAUGUCCUCAUAAGCUCGUCUUAA [Mat - Sensor v3 - Turn-off var 2 - D62] (puzzle: Sensor v3, turn-off variant 2) | µM | 0.0484

We now examine a further sequence.
For this sequence ( UUUUUCAGGCCAGAUCCUCACAUGAGGAUCACCCAUGUGCUCGUCUGUUUUCGCUCUUUCUUUUUUUUGUUUGUGCU [Level Boss var2-19] (puzzle: Sensor v3, turn-off variant 1) ), measured apparent KD of MS2 coat protein is 0.181

---

- System: K4 kissing-loop RNA reporter;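 also: bound reporter read as fluorescence of individual clusters on recovered sequencing chips by microscopy, with normalized cluster intensities fitted with a binding model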
- assay-summary: apparent KD of K4 kissing-loop reporter; higher = weaker reporter binding
- condition-details: Eterna round: R107; input ligand: none
Mark t for reported apparent KD of K4 kissing-loop reporter of 400 nM or greater; mark f for anything smaller.

Solved entries (count: 5):
chain | classification
AGAGAUAUAUGAGGAUAUGGGUUAGUUAAUGAGUUAGUUUUAGUGUUGUUUGGUUAGUGAUGUUAUUUAGAAGGCGUGAGUGAUG [cqqbmullin] | f
UCGAUGGCCAGCGAUACCAGCCCAGUGAUGUUGGGCACAUGGUUGCGGGAAAUCCCAUUGGGCCCUUGGCAGCGCUUGCAUGGGU [Dizaisa] | f
UGCAUGCGUAGAGUGAUGUUCUAAGAUGAUACCAGUGCGGAAACGCACCCUUGGCAGCAUCUGACUGCAUGCACGUCGAAAGACG | t
UCCUCGAAUCGACCUCGAAAGAGGAUGGAUACCAGUCUUGAUAAAGACCCUUGGCAGCCAGUGAUGUUGGAACGAGGUAAAUAAA [#SwitchBubble 19 #K4Late] | t
CGGCGCGGCGCGGCCGCCACUGCGCCUGGGUGCUCGCCGAGUGAUGUUCGUCGGCGGUUGGGUGGCAGGACCGGGUGCCGGCCCG [BDazzled - #18 SS Tryptophan B] | t

State whether the measured apparent KD of K4 kissing-loop reporter reaches 400 nM, counting equality as reaching it, for UGACUGGACUGAAGGAGCGCUAAACUCCUAGUGAUGUUAGGGAACCGAGACAAAGUCUCGAGGCAGGUAGGUCGCAGUCUAGUCU [FiskerMod 2 - Jieux - Same State - Arginine B] f

State whether the measured apparent KD of K4 kissing-loop reporter reaches 400 nM, counting equality as reaching it, for GGAUCCGCCAGUGAUGUUGGAGAAAACUCCAAGGAUAUGACGAAAGUCAGAAGGUGGUAGACUGGACAAAGUCCGGUCGGAUCCA [FmnA 26 #SwitchBubble #K4Early] t

State whether the measured apparent KD of K4 kissing-loop reporter reaches 400 nM, counting equality as reaching it, for UAUCAGAUUACUGAUACCAGUCUAAAGACAGUGAUGUUGUCUGAUCGACCACGAUCAAAGGACCCUUGGCAGCAGUGUACUAUUC [#29 K4 Theophylline B Same State] f

State whether the measured apparent KD of K4 kissing-loop reporter reaches 400 nM, counting equality as reaching it, for UGGAUAUAGUGAUGUUAUAUAGAGAUGGAUACCAGUUUAGAGAAGAGCCCUUGGCAGCCGAAAGAAGUAUCAUUAGAGAAGAAUG [ExTheophyl.Al] f

State whether the measured apparent KD of K4 kissing-loop reporter reaches 400 nM, counting equality as reaching it, for AAAAUAAAUCAGUGAUGUUGGUGUCCAGAUACCAGCGACGAAAGUCGCCCUUGGCAGCUGUGGACGUACAAAAUAAGUACGUCCU [MatMod 22 - Jieux - Same State - Theophylline A] t

State whether the measured apparent KD of K4 kissing-loop reporter reaches 400 nM, counting equality as reaching it, for CAUAGGAAACUAUGUUUCUCUCUGACUGAAGGAGCGCGUGAAAACGCAGGUAGGUCGCAGAAUUUAACAGAGAGUGAUGUUCUCA [Ex Arginine A K4 12] t

State whether the measured apparent KD of K4 kissing-loop reporter reaches 400 nM, counting equality as reaching it, for UGUCAUUGGUCGGCCGCCACUAUAAUAAAAGAGUGAUGUUCUAAAAGACGGACAAAAGUCUGUCAUAGGACCGGGACCGAUGACU [TrypBS 25 #SwitchBubble #StaticStem] t

State whether the measured apparent KD of K4 kissing-loop reporter reaches 400 nM, counting equality as reaching it, for UAAUUGCAGUGAUGUUGCAAAUGUCCUGACUAGGAUAUCAGGAAACUGAGAAGGAGUCCCUUCUAUUGCAACAAGAAGGAGGAUA [KL-SSFMN-A14] f

State whether the measured apparent KD of K4 kissing-loop reporter reaches 400 nM, counting equality as reaching it, for GUCUCCGUCGAUGAUACCAGUCGAUGUACGUCAGGUACCCUUUGAGUGAUGUUCAGAUUAGACCCUUGGCAGCAUAUCGAGGCUC [theeternabot_exclusion_KL_Theo_B_24] t

State whether the measured apparent KD of K4 kissing-loop reporter reaches 400 nM, counting equality as reaching it, for AAGUGUGUGGCGGCCGCCACUAGUCUCCAGUGAUGUUGGAGAUAUCACGUAAGUGAUAUCCGACAUAGGACCGGGCCAUAUAGAA [Same State - Tryptophan B (Freestyle 21)] t

State whether the measured apparent KD of K4 kissing-loop reporter reaches 400 nM, counting equality as reaching it, for UGUACCGAGUUAGGAUAUGUCGUCGAAAGACGAAAUGGAGUGAUGUUCCUUAAACUGCGAAAGCAGACAGAAGGAACUUGGUACU [FmnBS 29 U11+A75] t

State whether the measured apparent KD of K4 kissing-loop reporter reaches 400 nM, counting equality as reaching it, for AACUCUCAGACAUUUGAGUGAUGUUCAGGCCGAGGACCGGUACGGCCGCCACUCGGGUCUGAGAGAGGUUAUCAAAGAUAGCCAA [Omei KL Tryp A SS A v6] f

Source listed as the supplement of paper PMC9170038.
